# PROCEDURE DETAILS: Acute Toxicity Test (oral, mortality by 3-days observation)
# CONDITIONS USED: mouse, in vivo, ddY male mice
MEASUREMENT NAME: LD50 at 72 h

Lab book: LD50 at 72 h of Cc1ccc(C(=O)SCC2C(=O)OCC2c2ccccc2)cc1 (stereo not shown) [Compound 7] noted as > 4000 mg/kg

Lab note: O=C(SC[C@@H]1C(=O)OC[C@H]1c1ccc(Cl)cc1)c1ccc(F)cc1 (relative stereo) [Compound 23] gave LD50 at 72 h of > 4000 mg/kg

LD50 at 72 h recorded for this molecule, O=C1OCC(c2ccccc2)C1CSCc1ccccc1 (stereo not shown) [Compound 84] , is > 4000 mg/kg

Sure, the documented LD50 at 72 h for c1ccc([C@H]2CN3CCSC3=N2)cc1 [Levamisole, levamisole, reference compound] is < 1000 mg/kg

Entry Cc1ccc(C(=O)SCC2C(=O)OCC2c2ccc(Cl)cc2)cc1 (stereo not shown) [Compound 1] , LD50 at 72 h reported as > 4000 mg/kg

Lookup result for CC(=O)SCC1C(=O)OCC1c1ccccc1 (stereo not shown) [Compound 40] ; measured LD50 at 72 h: > 2000 mg/kg

Looking up O=C(SCC1C(=O)OCC1c1ccc(Cl)cc1)c1ccccc1 (stereo not shown) [Compound 74] , I see its LD50 at 72 h listed as > 4000 mg/kg
